TEST: resazurin metabolic signal in HepG2 cells – cell-based, resazurin fluorescence, 24 h, PK04 Diversity Set, profiling panel (AID 1172); note: test concentration not given here
EXPERIMENTAL_CONTEXT: HepG2 viability, higher = more signal
Reported z-score values follow for various molecules
No unit in the answer, please; the number alone is enough.

Worked set:
{"MOLECULE": "O=C(NC1CC1)[C@@H]1c2ccccc2C(=O)N(CC23CC4CC(CC(C4)C2)C3)[C@H]1c1ccc(CO)cc1", "TEST_RESULT": 0.658}
{"MOLECULE": "COC(=O)[C@@]1(Cc2ccccc2)[C@H]2c3cc(C(=O)N(C)C)n(CCO)c3C[C@H]2CN1C(=O)c1ccccc1", "TEST_RESULT": -0.546}
{"MOLECULE": "C#CCN1[C@@H](Cc2ccccc2)C(=O)O[C@H](Cc2ccccc2)[C@@H]1/C=C/C1CC1", "TEST_RESULT": 0.642}
{"MOLECULE": "C=C(COC)C(=O)CC[C@@H](OC(=O)c1ccccc1-c1ccccc1C(=O)O)c1ccc(OCCO)cc1", "TEST_RESULT": -0.425}
{"MOLECULE": "CN1C(=O)[C@@H]2[C@@H](CC(COc3ccccc3)=C3[C@@H](CCc4ccccc4)OB(O)C[C@@H]32)C1=O", "TEST_RESULT": -0.418}

Data request: Look up z-score for this molecule: "COc1ccc([Si](C)(C)[C@@H]2[C@@H](CC(=O)N(CCO)Cc3ccccc3)O[C@]3(C(=O)N(Cc4ccc(N5C(=O)c6cccc7cccc5c67)cc4)c4ccccc43)[C@H]2C)cc1"
Data returned: -1.17

---

TEST: forskolin-driven CRE-LacZ activity in PC12 – cell-based, CRE-LacZ reporter, forskolin-stimulated, primary screen (AID 1146);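 note: PC12 cells with 6xCRE LacZ reporter stimulated by forskolin 10 µM; beta-galactosidase reporter signal reflecting CREB driven transcription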
EXPERIMENTAL_CONTEXT: luminescence, 4.5 h, higher = more signal, called active from +8 up or from −8 down
Where z-score equals or exceeds -0.4, the correct label is Fulfilled; where it does not, the label is Not fulfilled.

Study these solved cases before continuing.
{"STRUCTURE_NOTATION": "COCCOC(=O)N1C(=O)[C@@]2(c3cc(C#CCCO)ccc31)[C@H](c1ccc(OCCO)cc1)N1[C@H](c3ccccc3)[C@H](c3ccccc3)OC(=O)[C@H]1[C@@H]2C(=O)N1CCCCCCC1", "LABEL_CLASS": "Fulfilled"}
{"STRUCTURE_NOTATION": "COCCCNC(=O)[C@@]1(CCS(=O)(=O)c2ccccc2)COC(c2ccc(OCCCO)cc2)=N1", "LABEL_CLASS": "Fulfilled"}
{"STRUCTURE_NOTATION": "COC(=O)[C@H](Cc1ccccc1)N1CC2=CCCC=C[C@@H]2[C@H]1[C@H](O)Cc1ccccc1", "LABEL_CLASS": "Fulfilled"}
{"STRUCTURE_NOTATION": "COc1ccc([Si](C)(C)[C@@H]2[C@@H](CC(=O)N3Cc4ccccc4C[C@H]3CO)O[C@]3(C(=O)N(Cc4ccc(N5CCOC5=O)cc4)c4ccccc43)[C@H]2C)cc1", "LABEL_CLASS": "Not fulfilled"}
{"STRUCTURE_NOTATION": "C=CCOC(=O)[C@H]1[C@@H]2C(=O)O[C@@H](c3ccccc3)[C@@H](c3ccccc3)N2[C@@H](c2ccc(OCCOC(=O)[C@H]3C[C@H]4C(=O)N[C@@H](CC(C)C)C(=O)N4[C@H]3c3ccc(O)cc3)cc2)[C@]12C(=O)Nc1ccccc12", "LABEL_CLASS": "Fulfilled"}

Data request: z-score >= -0.4 for "O=C(N1CCOCC1)[C@@]1(Cc2ccccc2)COC(c2ccc(OCCCO)cc2)=N1" ?
Data returned: Not fulfilled
